Literature roundup of Prostaglandin G/H synthase 1 (Ovis aries, UniProt P05979) data, read-out IC50.
Biological target: Prostaglandin G/H synthase 1 (Ovis aries, UniProt P05979)
Sequence (P05979 whole entry): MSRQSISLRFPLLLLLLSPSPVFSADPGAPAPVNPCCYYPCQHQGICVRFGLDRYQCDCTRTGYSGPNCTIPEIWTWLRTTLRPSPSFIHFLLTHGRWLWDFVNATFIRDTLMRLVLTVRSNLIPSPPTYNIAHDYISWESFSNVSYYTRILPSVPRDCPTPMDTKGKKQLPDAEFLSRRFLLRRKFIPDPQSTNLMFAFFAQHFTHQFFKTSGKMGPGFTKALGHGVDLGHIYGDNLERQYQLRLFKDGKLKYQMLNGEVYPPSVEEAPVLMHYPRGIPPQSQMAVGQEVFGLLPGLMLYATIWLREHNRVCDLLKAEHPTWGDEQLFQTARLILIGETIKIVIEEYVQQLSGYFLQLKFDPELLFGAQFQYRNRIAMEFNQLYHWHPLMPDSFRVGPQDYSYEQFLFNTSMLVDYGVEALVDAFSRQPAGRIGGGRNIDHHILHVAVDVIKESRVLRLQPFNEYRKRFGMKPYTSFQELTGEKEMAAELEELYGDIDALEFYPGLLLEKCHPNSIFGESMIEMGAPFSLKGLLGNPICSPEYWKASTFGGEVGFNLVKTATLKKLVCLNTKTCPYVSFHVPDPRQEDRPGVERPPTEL

Consider the following illustrative entries.
S=c1[nH]nc(/N=C/c2ccc(Cl)cc2)s1 > 50 µM
COc1ccc(-c2cc(-c3ccccc3)c(-c3ccc(N=[N+]=[N-])cc3)c(=O)o2)cc1 > 100 µM

Now look at this one.
Inquiry: So what does the record say about IC50 for "CC(=O)Oc1cc(F)ccc1-c1cc(C(F)(F)F)nn1-c1ccc(S(C)(=O)=O)cc1" ?
Reply text: > 100 µM

---

Target: Prostaglandin G/H synthase 1 (Ovis aries, UniProt P05979)
Sequence (P05979 whole entry): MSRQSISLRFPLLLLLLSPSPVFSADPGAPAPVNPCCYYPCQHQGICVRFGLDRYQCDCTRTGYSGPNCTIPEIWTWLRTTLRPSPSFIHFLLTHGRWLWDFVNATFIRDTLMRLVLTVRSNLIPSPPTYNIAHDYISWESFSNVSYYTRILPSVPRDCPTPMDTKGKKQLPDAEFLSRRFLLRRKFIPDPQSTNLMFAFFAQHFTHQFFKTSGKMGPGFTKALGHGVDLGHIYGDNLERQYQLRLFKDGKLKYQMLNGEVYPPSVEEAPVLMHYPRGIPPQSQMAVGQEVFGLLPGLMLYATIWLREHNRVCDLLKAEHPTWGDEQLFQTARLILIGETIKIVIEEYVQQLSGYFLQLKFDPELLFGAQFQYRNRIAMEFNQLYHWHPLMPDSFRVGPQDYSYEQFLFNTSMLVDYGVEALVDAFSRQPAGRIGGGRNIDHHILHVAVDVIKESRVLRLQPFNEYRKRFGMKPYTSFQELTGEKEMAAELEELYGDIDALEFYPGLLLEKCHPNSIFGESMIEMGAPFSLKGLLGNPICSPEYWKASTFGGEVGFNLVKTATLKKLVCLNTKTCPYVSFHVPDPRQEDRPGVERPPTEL
pIC50: −log10 of the molar value.
// read-out pIC50, gathered for Prostaglandin G/H synthase 1 (Ovis aries, UniProt P05979) from published studies

Compound	Target Under Test	Result
CC(=O)Oc1ccccc1SCCCOc1ccccc1	Prostaglandin G/H synthase 1 (Ovis aries, UniProt P05979)	< 3.00
COc1cc(-c2ccc(F)cc2)c(-c2ccc(S(C)(=O)=O)cc2)c(=O)o1	Prostaglandin G/H synthase 1 (Ovis aries, UniProt P05979)	< 3.00
O=C(O)Cn1c2c(c3cccc(Cl)c31)CN(C(=O)c1ccccc1)CC2	Prostaglandin G/H synthase 1 (Ovis aries, UniProt P05979)	< 5.00
COC(=O)[C@H](Cc1ccccc1)n1cc(COc2nc(Cl)nc(N3CCOCC3)n2)nn1	Prostaglandin G/H synthase 1 (Ovis aries, UniProt P05979)	< 5.00
CCC(C)C(=O)O[C@@]12[C@H](O)[C@@H](C)[C@]3(O)[C@@H]4C=C(C)C(=O)[C@@H]4CC(CO)=C[C@H]3[C@@H]1C2(C)C (stereo partly specified)	Prostaglandin G/H synthase 1 (Ovis aries, UniProt P05979)	< 4.30

Inquiry: Recorded pIC50 of "CS(=O)(=O)c1ccc(-c2ccccc2-c2ccccc2)cc1" , please.
Reply text: < 3.00
